Target: human neuropeptide Y5 receptor (Homo sapiens, UniProt Q15761)
Construct: expressed in transfected cells; host or cells: HEK-293 (stably transfected, G-418 selected); membranes
Sequence (Q15761 whole entry): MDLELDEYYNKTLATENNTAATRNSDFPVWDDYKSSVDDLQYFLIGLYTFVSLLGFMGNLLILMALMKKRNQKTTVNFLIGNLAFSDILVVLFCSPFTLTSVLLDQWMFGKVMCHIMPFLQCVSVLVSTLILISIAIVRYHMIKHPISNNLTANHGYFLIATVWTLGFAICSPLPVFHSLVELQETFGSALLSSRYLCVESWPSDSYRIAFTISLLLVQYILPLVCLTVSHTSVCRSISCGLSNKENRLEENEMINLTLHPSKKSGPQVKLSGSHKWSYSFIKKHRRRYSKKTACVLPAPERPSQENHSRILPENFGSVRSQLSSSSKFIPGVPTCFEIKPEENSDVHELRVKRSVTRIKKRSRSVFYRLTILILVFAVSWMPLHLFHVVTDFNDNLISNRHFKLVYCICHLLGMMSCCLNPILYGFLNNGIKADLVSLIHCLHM
Experiment: NPY5 HTS centrifugation assay: competition with 125I-PYY for binding to membranes of NPY5-transfected HEK293 cells
Conditions: 300 nM compound, 80 pM 125I-PYY, 1 hr room temperature
Method: The compounds described in this invention were evaluated for binding to the human neuropeptide Y5 receptor. Stably transfected cells served as the source for the membranes for the NPY5 receptor binding assay. […] Compounds to be tested were prepared as 10× stocks in binding buffer and added first to assay tubes (RIA vials, Sarstedt). […] Vials are then put in carrier polypropylene 12×75 tube and counted in gamma counter (Packard). Non-specific binding is determined in the presence of 300 nM NPY. […]
Parameter: % Inh @ 300 nM (% Inhibition of 125I-PYY Binding). Scope: all listed entries.
I only need the number, in %, no unit after it.

# annotated cases, reported % Inh @ 300 nM (% Inhibition of 125I-PYY Binding) shown
CC(=O)NC(CCCCNS(=O)(=O)c1ccccc1)C(=O)NC1CCc2ccccc2C1Cc1cccnc1 (single isomer, unassigned) [Compound 38a] | 80
CN(C)C(CCCCNS(=O)(=O)c1ccccc1)C(=O)NC1CCc2ccccc2C1Cc1cccnc1 (single isomer, unassigned) [Compound 43b] | 62
O=C(CN1CCC(n2c(=O)[nH]c3ccccc32)CC1)NCC(Cc1cccnc1)c1ccc(O)cc1 (stereo not drawn) [Compound 87] | 97
CC(=O)NC(CCCCNS(=O)(=O)c1ccccc1)C(=O)NC1CCc2ccccc2C1Cc1cccnc1 (single isomer, unassigned) [Compound 38b] | 89
COc1ccc2c(c1)CCC(NC(=O)CN1CCC(n3c(=O)[nH]c4ccccc43)CC1)C2 (stereo not drawn) [Compound 82] | 63

Let's switch to this molecule now.
Data request: Give recorded % Inh @ 300 nM (% Inhibition of 125I-PYY Binding). CCNC(=O)NC(CCCCNS(=O)(=O)c1ccccc1)C(=O)NC1CCc2ccccc2C1Cc1cccnc1 (mixture of isomers) [Compound 40]
Data returned: 21

* * *

Target: human neuropeptide Y5 receptor (Homo sapiens, UniProt Q15761)
Construct: expressed in transfected cells; host or cells: HEK-293 (stably transfected, G-418 selected); membranes
Assay: NPY5 HTS centrifugation assay: competition with 125I-PYY for binding to membranes of NPY5-transfected HEK293 cells
Details: 3 uM compound, 80 pM 125I-PYY, 1 hr room temperature
Protocol: The compounds described in this invention were evaluated for binding to the human neuropeptide Y5 receptor. Stably transfected cells served as the source for the membranes for the NPY5 receptor binding assay. […] Compounds to be tested were prepared as 10× stocks in binding buffer and added first to assay tubes (RIA vials, Sarstedt). […] Vials are then put in carrier polypropylene 12×75 tube and counted in gamma counter (Packard). Non-specific binding is determined in the presence of 300 nM NPY. […]
Test Readout: % Inh @ 3 uM (% Inhibition of 125I-PYY Binding)

# annotated cases, reported % Inh @ 3 uM (% Inhibition of 125I-PYY Binding) shown
NC(CCCCNS(=O)(=O)c1ccccc1)C(=O)NC1CCc2ccccc2C1Cc1cccnc1 (single isomer, unassigned) [Compound 34a] | 97%
O=C(CN1CCC(n2c(=O)[nH]c3ccccc32)CC1)NCC(Cc1cccnc1)c1ccc(O)cc1 (stereo not drawn) [Compound 87] | 96%

Let's switch to this compound now.
Data request: Give recorded % Inh @ 3 uM (% Inhibition of 125I-PYY Binding). CCNC(CCCCNS(=O)(=O)c1ccccc1)CNC1CCc2ccccc2C1Cc1cccnc1 (mixture of isomers) [Compound 68]
Data returned: 108%
